- System: RPMI-8226
- Experiment Summary: NCI tumour cell line growth inhibition, 48 h
The source made the active and inactive calls. Rule as the data show it: active = GI50 up to about 1.1 µM and inactive = higher.
Assay Endpoint: GI50

c1ccc(C2=NNC3c4ccccc4-c4ccccc4N3C2)cc1 (stereo unspecified) = 19 µM (inactive)

-- ask Form field - read-out: GI50; system: RPMI-8226; submitted item: COc1ccc(CCn2nccc2C)cc1
-- reply > 100 µM (inactive)

-- ask Form field - read-out: GI50; system: RPMI-8226; submitted item: O=C(OCCN1CCCCC1)C(c1ccccc1)C1(O)CCSCC1 (stereo unspecified)
-- reply > 100 µM (inactive)

-- ask Form field - read-out: GI50; system: RPMI-8226; submitted item: Nc1nc(Cl)cc(NCC2(CO)CC(CCCc3ccccc3)C2)n1 (stereo unspecified)
-- reply > 100 µM (inactive)

-- ask Form field - read-out: GI50; system: RPMI-8226; submitted item: Cc1ccc(S(=O)(=O)NC(CN)C(=O)O)cc1 (stereo unspecified)
-- reply > 100 µM (inactive)

-- ask Form field - read-out: GI50; system: RPMI-8226; submitted item: O=c1[nH]nc(Cc2ccc(Cl)cc2)n1/N=C/c1ccco1
-- reply > 100 µM (inactive)

-- ask Form field - read-out: GI50; system: RPMI-8226; submitted item: Cc1ccc(S(=NS(=O)(=O)c2ccc(C)cc2)c2ccc(C)cc2)cc1
-- reply > 100 µM (inactive)
